// data source = ChEMBL document CHEMBL3091276

# experimentalProtocol: Selectivity index, ratio of IC50 for mouse RAW264.7 cells to MIC99 for Mycobacterium tuberculosis H37Rv
# Format: toxicity
# assayConditions: read-out: Selectivity Index
Reported selectivity ratio values for the following molecules.

Below: 2 molecules and their reported selectivity ratio.
• COc1ccc(-n2cc(CN3CCN(c4nc5ccccc5c5ccccc45)CC3)nn2)cc1 = > 15
• O=S(=O)(c1ccccc1)n1cc(CN2CCN(c3nc4ccccc4c4ccccc34)CC2)nn1 = > 125

Now let's try a different one.
### Prompt Fill in selectivity ratio for record Clc1cccc(-n2cc(CN3CCN(c4nc5ccccc5c5ccccc45)CC3)nn2)c1
### Response > 20

----------
# experimentalProtocol: Cytotoxicity against mouse RAW264.7 cells at 50 ug/ml by MTT assay relative to control
# Assay type: cell-based
# assayConditions: read-out: INH
endpointLabel: cytotoxicity at 50 ug/ml (%)
I only need the number, in %, no unit after it.

Known cytotoxicity at 50 ug/ml results, listed for orientation:
• Clc1cccc(-n2cc(CN3CCN(c4nc5ccccc5c5ccccc45)CC3)nn2)c1 = 12.6
• O=S(=O)(c1ccccc1)n1cc(CN2CCN(c3nc4ccccc4c4ccccc34)CC2)nn1 = 5.82

Now look at this entry.
### Prompt Check the records and state cytotoxicity at 50 ug/ml for COc1ccc(-n2cc(CN3CCN(c4nc5ccccc5c5ccccc45)CC3)nn2)cc1
### Response 19.2
